# measurement-target: S1P1 receptor (Homo sapiens)
# Sequence (P21453 whole entry): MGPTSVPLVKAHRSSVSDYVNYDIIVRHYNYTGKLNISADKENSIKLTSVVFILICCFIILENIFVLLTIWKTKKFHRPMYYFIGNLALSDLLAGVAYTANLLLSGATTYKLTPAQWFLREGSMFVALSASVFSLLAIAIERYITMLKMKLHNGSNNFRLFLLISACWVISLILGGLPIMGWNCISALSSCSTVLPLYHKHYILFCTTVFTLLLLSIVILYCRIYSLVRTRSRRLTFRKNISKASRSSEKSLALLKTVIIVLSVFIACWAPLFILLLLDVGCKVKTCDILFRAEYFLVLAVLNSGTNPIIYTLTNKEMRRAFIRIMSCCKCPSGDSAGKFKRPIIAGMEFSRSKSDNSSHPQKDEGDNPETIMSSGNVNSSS
# assay-summary: HTRF assay for direct cAMP measurement (S1P1 receptor agonism)
# measurement-conditions: recombinant CHO-K1 cells stably transfected with S1P1 receptor; decrease of cAMP
Labelling: EC50 reported below 10 nM becomes Condition met; at or above becomes Condition not met.

-- ask Hi there! Is EC50 for O=C(O)CC1CCn2c1cc1cc(-c3noc(-c4ccc5c(c4)OC(F)(F)O5)n3)ccc12 (centres unmarked) below 10 nM, do you know?
-- reply Condition not met

-- ask Hi there! Is EC50 for O=C(O)CC1CCn2c1cc1cc(-c3noc(-c4cc(Br)cc(OC(F)(F)F)c4)n3)ccc12 (centres unmarked) below 10 nM, do you know?
-- reply Condition not met

-- ask Hi there! Is EC50 for O=C(O)CC1CCn2c1cc1cc(-c3noc(-c4cc(C(F)(F)F)cc(C(F)(F)F)c4)n3)ccc12 (centres unmarked) below 10 nM, do you know?
-- reply Condition met

-- ask Hi there! Is EC50 for N#Cc1cc(-c2nc(-c3ccc4c(c3)cc3n4CCC3CC(=O)O)no2)ccc1OCC(F)(F)F (centres unmarked) below 10 nM, do you know?
-- reply Condition met
